Values of IC50 for the protein given by its sequence, collected from a number of published sources:
Target protein (sequence): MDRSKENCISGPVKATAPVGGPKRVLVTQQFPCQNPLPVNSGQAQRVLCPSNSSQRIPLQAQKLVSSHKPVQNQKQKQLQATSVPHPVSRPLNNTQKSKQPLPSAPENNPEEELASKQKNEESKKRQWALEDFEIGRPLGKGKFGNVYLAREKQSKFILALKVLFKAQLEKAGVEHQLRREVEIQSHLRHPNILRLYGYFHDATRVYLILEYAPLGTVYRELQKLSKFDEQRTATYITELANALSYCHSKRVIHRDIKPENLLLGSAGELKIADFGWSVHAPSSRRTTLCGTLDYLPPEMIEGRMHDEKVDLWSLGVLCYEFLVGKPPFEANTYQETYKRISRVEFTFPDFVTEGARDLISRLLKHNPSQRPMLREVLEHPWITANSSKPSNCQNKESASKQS

Example results:
Sample smiles: Nc1ncnc(Nc2ccc(OCc3ccccc3)c(Cl)c2)c1C(=O)NCCN1CCOCC1
Target system: the protein given by its sequence
IC50: > 100 µM

Sample smiles: CN1CCN(Cc2ccc(C(=O)Nc3cc(-c4ccc(CNC(=O)Nc5ccccc5)cc4)n[nH]3)cc2)CC1
Target system: the protein given by its sequence
IC50: > 1 µM

Sample smiles: CNC(=O)c1nn(C)c2c1CCc1cnc(NC3CCCC3)nc1-2
Target system: the protein given by its sequence
IC50: > 10 µM

Proceed to the following item.
Ask: Provide the reported IC50 (system: the protein given by its sequence) for NC(=O)c1sc2c([N+](=O)[O-])cc(C(F)(F)F)cc2[n+]1[O-]
Reply: > 100 µM

---

Protein target, amino acids: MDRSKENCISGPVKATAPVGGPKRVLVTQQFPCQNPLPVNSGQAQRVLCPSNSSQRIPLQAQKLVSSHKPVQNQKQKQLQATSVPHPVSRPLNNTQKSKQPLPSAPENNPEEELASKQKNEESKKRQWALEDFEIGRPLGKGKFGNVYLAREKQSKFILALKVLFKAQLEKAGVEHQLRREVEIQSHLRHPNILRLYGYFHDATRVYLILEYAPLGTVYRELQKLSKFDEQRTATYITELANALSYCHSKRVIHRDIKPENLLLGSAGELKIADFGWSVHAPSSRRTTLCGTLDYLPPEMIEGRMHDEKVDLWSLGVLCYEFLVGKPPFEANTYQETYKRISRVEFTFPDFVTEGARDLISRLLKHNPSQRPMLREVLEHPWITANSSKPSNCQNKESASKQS
pIC50: −log10 of the molar value.
Values of pIC50 for the protein given by its sequence, collected from a number of published sources:

Example results:
Molecule: O=C(Nc1cccc(C(F)(F)F)c1)Nc1nc(CCNc2ncnc3ccsc23)cs1
Target system: the protein given by its sequence
Result: < 4.70
--
Molecule: CNC(=O)c1nn(C)c2c1CCc1cnc(NC3CCN(C)CC3)nc1-2
Target system: the protein given by its sequence
Result: < 5.00
--
Molecule: CNC(=O)c1nn(C)c2c1CCc1cnc(NC3CCN(C(=O)c4ccccc4)CC3)nc1-2
Target system: the protein given by its sequence
Result: < 5.00
--
Molecule: CCC(c1cc(Nc2nc(C)cn3c(-c4cn[nH]c4)cnc23)sn1)N1CCOCC1 (racemic)
Target system: the protein given by its sequence
Result: ≥ 8.40

Ask: Respond only with pIC50 recorded for CCC(=O)Nc1ccc(Sc2nc(Nc3cc(C)n[nH]3)cc(N3CCN(CC)CC3)n2)cc1
Reply: > 9.00

Ask: Respond only with pIC50 recorded for CN1CCN(Cc2ccc(C(=O)Nc3cc(-c4ccc(CNC(=O)Nc5cc(C(C)(C)C)on5)cc4)n[nH]3)cc2)CC1
Reply: < 6.00
